System: Daphnia magna
Conditions: chronic/long-term; duration: 21 days; reproduction
Overview of reported NOEC across a group of compounds:
Answer format: numeric, mg/L implied, no suffix.

Below: 3 compounds and their reported NOEC.
Compound: Nc1c(Cl)cc([N+](=O)[O-])cc1Cl
NOEC [mg/L]: 0.032
--
Compound: C/C=C(\C)C(=O)O[C@H]1C[C@@H](OC(C)=O)[C@@]2(C(=O)OC)CO[C@H]3[C@@H](O)[C@@](C)([C@]45O[C@@]4(C)[C@H]4C[C@@H]5O[C@@H]5OC=C[C@@]54O)[C@H]4[C@]1(CO[C@]4(O)C(=O)OC)[C@@H]32
NOEC [mg/L]: 0.038
--
Compound: CC(COc1ccc(Oc2ccccc2)cc1)Oc1ccccn1 (stereo not given)
NOEC [mg/L]: 1.5e-05

Inquiry: Which NOEC is reported with Daphnia magna for this entry: O=C(O)CNCP(=O)(O)O [Glyphosate] ?
Reply text: 12.5

Inquiry: Another: CCOC(=O)CC(SP(=S)(OC)OC)C(=O)OCC (stereo not given)
Reply text: 6e-05

Reference source for all entries: EPA's ToxValDB 9.5
